experiment: Stability in rat liver cytosol assessed as compound turnover per mg protein; format: ADME, subcellular
Each record here notes measured Drug metabolism.
Quick note: give the figure in pmol/min/mg protein, leave out the unit.

# input For the compound shown here, CCCCn1cc(C(=O)NCc2ccccc2)c(=O)c2c(F)cc(N3CCOCC3)cc21 , give the reported Drug metabolism.
# output 4.3

# input Let us now turn to CCCCn1cc(C(=O)NCc2ccc(F)cc2)c(=O)c2c(F)cc(N3CCOCC3)cc21
# output 3.89

# input Same question for CCCCn1cc(C(=O)NCc2ccccc2)c(=O)c2cc(F)c(N3CCOCC3)cc21 please.
# output 47.11

# input Request: CCCCn1cc(C(=O)NCc2ccc(F)cc2F)c(=O)c2cc(F)c(N3CCOCC3)cc21
# output 5.94

Just for reference, ChEMBL document CHEMBL4152252 is where these values come from.
